assay: BSK_3C_SRB: Viability Assessment in the BioMAP Diversity Plus: 3C Assay (AID 2283023); details: primary human endothelial cells (HUVEC);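 also: cells read 24 h after compound dosing; fitted both ways against DMSO so a hit may be signal rise or drop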
Activity calls are given as the source filed them. The calls were made as follows: active = hit-call score of the fitted dose curve at least 0.9, where 1 is the maximum; inactive = score below 0.9.
Labels: y (active), n (inactive)

Compound: Oc1cc2ccccc2c2ccccc12
Class Label: y
--
Compound: CCCCC(CC)COC(=O)CCCCC(=O)OCc1ccccc1 (stereo not drawn)
Class Label: n
--
Compound: CCCCCCCCCCCCc1ccccc1S(=O)(=O)O
Class Label: n
--
Compound: OC1CCCCC1
Class Label: n
--
Compound: CN1CCC[C@H]1c1cccnc1
Class Label: n
--
Compound: O=C(O)c1ccccc1C(c1ccc(O)cc1)c1ccc(O)cc1
Class Label: n
--
Compound: NC(=O)N(O)[C@@H]1C=C[C@H](Oc2cccc(Oc3ccc(F)cc3)c2)C1
Class Label: y
--
Compound: CC1=C(/C=C/C(C)=C/C=C/C(C)=C/C(=O)O)C(C)(C)CCC1
Class Label: n
--
Compound: CCc1nn(C2CCCCC2)c2cc(C3(C#N)CCC(C(=O)O)CC3)ccc12 (stereo not drawn)
Class Label: y
--
Compound: CCC(=C(c1ccc(O)cc1)c1ccc(OCCN(C)C)cc1)c1ccccc1
Class Label: y
--
Compound: ClC1=C(Cl)C(Cl)(Cl)C(Cl)=C1Cl
Class Label: y
--
Compound: O=c1c(-c2ccc(O)cc2)coc2cc(O)ccc12
Class Label: n
--
Compound: CN(C)C=O
Class Label: n
